Molecular target: Aromatase (Homo sapiens)
Assay: qHTS assay to identify aromatase inhibitors (AID 743083); also: nearly all actives have a fitted effect of over 55% in size
Conditions: MCF-7 aro ERE, testosterone-driven ERE luciferase, 24 h; series mostly up to 70.3 µM
Inconclusive results are not listed. Active and inactive are the calls of the source. Calls follow the shape of the dose curve; as a rule, active = well fitted inhibition curve with a large enough effect in the repeat runs; inconclusive = weak or mixed curves; inactive = no such curve, though single readings can be large or run the other way.
Outcomes: active, inactive

- compound: "CCCCCCCCCCCC(=O)N(CCO)CCO"
  category: "inactive"
- compound: "C[C@H](N)C(=O)N[C@@H](C)P(=O)(O)O"
  category: "inactive"
- compound: "c1ccc2c(CCC3CCNCC3)c[nH]c2c1"
  category: "inactive"
- compound: "O=S(=O)(O)c1cc(O)c2c(N=Nc3ccc(Nc4ccccc4)c4c(S(=O)(=O)O)cccc34)cc(S(=O)(=O)O)cc2c1"
  category: "active"
- compound: "c1cnc2cc3c(cc2n1)[C@@H]1CNC[C@H]3C1"
  category: "inactive"
- compound: "O=C(/C=C/c1cccc(F)c1)NC1CC1"
  category: "inactive"
- compound: "CC(=O)N[C@@H](CC(=O)N[C@@H](CCC(=O)O)C(=O)O)C(=O)O"
  category: "inactive"
- compound: "CCCC(CCC)C(N)=O"
  category: "inactive"
- compound: "CS(=O)(=O)OCC(O)C(O)COS(C)(=O)=O (stereo unspecified)"
  category: "inactive"
- compound: "O=C1c2ccccc2C(=O)C1c1ccc(Cl)cc1"
  category: "inactive"
- compound: "CC(O)[C@H]1CC[C@H]2[C@@H]3CC[C@@H]4C[C@@H](O)CC[C@]4(C)[C@H]3CC[C@]12C (stereo partly specified)"
  category: "inactive"

---

Test: qHTS assay to identify small molecule antagonists of the estrogen receptor alpha (ER-alpha) signaling pathway using the BG1 cell line - cell viability counter screen (AID 743081);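 also: compound given together with 17beta-estradiol as the ER stimulus; nearly all actives have a fitted effect of over 45% in size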
Conditions: BG1Luc4E2 viability, CellTiter-Fluor, 22 h; series mostly up to 70.3 µM
Records with an inconclusive call do not appear. Calls of active or inactive are those of the source. The call rests on the fitted dose curve; in most records, active means well fitted cell-killing curve with a large enough effect in the repeat runs; inconclusive means weak or mixed curves, or effect the other way; inactive means flat fitted curve, though single readings scatter. Starred links: 1 amine or outer side, 2 acyl side, 3 side chain; linkers in the order of their positions; H or OH if unused. Positions of bridges follow the written chain, without caps; N, C: chain ends. Non-standard residues stand in square brackets, D forms with d. Residues, ends and D or L forms follow the SMILES beside them. *: point of attachment. X5 = NC1=N[C@@H]([C@H](N[*:1])C(=O)[*:2])C[C@H](O)N1; ΔAla(Z-3-ureido) = NC(=O)N/C=C(\N)C(=O)O; β3hOrn = NCCC[C@H](N)CC(=O)*; Orn = NCCC[C@H](N)C(=O)O; Dap = NC[C@H](N)C(=O)O; Mpa = O=C(O)CCS
Possible outcomes: 1 = active, 0 = inactive

- molecule: "CC[N+](C)(C)Cc1ccccc1Br"
  category: 0
- molecule: "NC(=O)Oc1ccc(Cc2ccccc2)cc1"
  category: 0
- molecule: "CCCCCCCC(=O)CC[C@@H]1[C@@H](C/C=C\\CCCC(=O)OC(C)C)[C@@H](O)C[C@H]1O"
  category: 0
- molecule: "CCOc1ccc(C[C@H]2NC(=O)CCSSC[C@@H](C(=O)N3CCC[C@H]3C(=O)N[C@@H](CCCN)C(=O)NCC(N)=O)NC(=O)[C@H](CC(N)=O)NC(=O)[C@H]([C@@H](C)O)NC(=O)[C@H]([C@@H](C)CC)NC2=O)cc1 ([Mpa][dY](Et)ITNCP[Orn]G-NH2; disulfide 1-6)"
  category: 0
- molecule: "CC[C@H]1OC(=O)[C@H](C)[C@@H](O[C@H]2C[C@@](C)(OC)[C@@H](O)[C@H](C)O2)[C@H](C)[C@@H](O[C@@H]2O[C@H](C)C[C@H](N(C)C)[C@H]2O)[C@](C)(O)C[C@@H](C)[C@@H]2N[C@@H](COCCOC)O[C@@H]([C@H]2C)[C@]1(C)O"
  category: 0
- molecule: "CC1(C)S[C@@H]2[C@H](NC(=O)[C@H](NC(=O)N3CCN(S(C)(=O)=O)C3=O)c3ccccc3)C(=O)N2[C@H]1C(=O)O"
  category: 0
- molecule: "O=C(NCCNCC(O)COc1ccc(O)cc1)N1CCOCC1 (stereo not given)"
  category: 0
- molecule: "C=C1c2c(Cl)ccc(O)c2C(O)=C2C(=O)[C@]3(O)C(O)=C(C(N)=O)C(=O)[C@@H](N(C)C)[C@@H]3[C@@H](O)[C@H]12"
  category: 0
- molecule: "COc1cc(C)c(/C=C/C(C)=C/C=C/C(C)=C/C(=O)O)c(C)c1C"
  category: 0
- molecule: "Cc1cccc(C)c1Nc1ncccc1C(=O)O"
  category: 0
- molecule: "O=S(=O)(O)c1cc(O)c2c(N=Nc3ccc(Nc4ccccc4)c4c(S(=O)(=O)O)cccc34)cc(S(=O)(=O)O)cc2c1"
  category: 1
- molecule: "CC(CCc1ccc(O)cc1)NCC(O)c1ccc(O)cc1 (stereo not given)"
  category: 0
- molecule: "NC(=O)OCC(O)COc1ccc(Cl)cc1 (stereo not given)"
  category: 0
- molecule: "O=C1C(=O)c2ncccc2-c2cccnc21"
  category: 0
- molecule: "NCCC[C@H](N)CC(=O)N[C@H]1CNC(=O)[C@H]([C@H]2C[C@H](O)NC(N)=N2)NC(=O)/C(=C/NC(N)=O)NC(=O)[C@H](CO)NC(=O)[C@H](CO)NC1=O (β3hOrn-[Dap]SS[ΔAla(Z-3-ureido)][X5]; lactam 1-C)"
  category: 0

---

Assay: qHTS assay to identify small molecule antagonists of the androgen receptor (AR) signaling pathway - cell viability counter screen (AID 743033; also: nearly all actives have a fitted effect of over 45% in size)
Conditions: AR-bla HEK293 viability, CellTiter-Glo luminescence, 16 h; series mostly up to 58.5 µM
Results filed as inconclusive are left out. Active and inactive are the calls of the source. The call rests on the fitted dose curve; in most records, active means well fitted cell-killing curve with a large enough effect in the repeat runs; inconclusive means weak or mixed curves; inactive means no such curve, though single readings can be large or run the other way. Non-standard residues stand in square brackets, D forms with d. Residues, ends and D or L forms follow the SMILES beside them. pGlu = O=C1CC[C@@H](C(=O)O)N1
Outcomes: YES (active), NO (inactive)

- molecule: "CCN(CC)CCOC(=O)c1ccc(N)cc1Cl"
  category: "NO"
- molecule: "CN1CCC(OC(=O)C(Oc2ccc(Cl)cc2)Oc2ccc(Cl)cc2)CC1"
  category: "NO"
- molecule: "CCOC(=O)Oc1c(OC)cc(C(=O)O[C@@H]2C[C@@H]3CN4CCc5c([nH]c6cc(OC)ccc56)[C@H]4C[C@@H]3[C@H](C(=O)OC)[C@H]2OC)cc1OC"
  category: "NO"
- molecule: "CCC(=O)NS(=O)(=O)c1ccc(-c2c(-c3ccccc3)noc2C)cc1"
  category: "NO"
- molecule: "C[C@]12CCC(=O)C=C1CC[C@@H]1[C@@H]2[C@@H](O)C[C@@]2(C)[C@H]1CC[C@]2(O)C(=O)COP(=O)(O)O"
  category: "NO"
- molecule: "CCC(=O)OCC(=O)[C@@]1(OC(=O)CC)[C@@H](C)C[C@H]2[C@@H]3CCC4=CC(=O)C=C[C@]4(C)[C@@]3(Cl)[C@@H](O)C[C@@]21C"
  category: "NO"
- molecule: "CCC(=O)O[C@@H]1CC(=O)O[C@H](C)C/C=C/C=C/[C@H](O)[C@H](C)C[C@H](CC=O)[C@H](O[C@@H]2O[C@H](C)[C@@H](O[C@H]3C[C@@](C)(O)[C@@H](OC(=O)CC)[C@H](C)O3)[C@H](N(C)C)[C@H]2O)[C@H]1OC"
  category: "NO"
- molecule: "O=P(O)(O)OC(Cn1cncn1)(Cn1cncn1)c1ccc(F)cc1F"
  category: "NO"
- molecule: "COc1ccc(C(=O)CCC(=O)O)c2ccccc12"
  category: "NO"
- molecule: "CN1c2c(nc(N)[nH]c2=O)NCC1CNc1ccc(C(=O)NC(CCC(=O)O)C(=O)O)cc1 (stereo unspecified)"
  category: "NO"
- molecule: "CC1(C)[C@@H]2CC[C@@]1(C)[C@H](OC(=O)CSC#N)C2"
  category: "NO"
- molecule: "O=[N+]([O-])c1c(Cl)cccc1-c1c[nH]cc1Cl"
  category: "NO"
- molecule: "O=C1NCCN1c1ncc([N+](=O)[O-])s1"
  category: "NO"
- molecule: "CC[C@H](C)[C@H](NC(=O)[C@H](Cc1ccccc1)NC(=O)[C@H](C)NC(=O)[C@H](CC(=O)O)NC(=O)[C@H](CCCCN)NC(=O)[C@H](CO)NC(=O)[C@@H]1CCCN1C(=O)[C@@H]1CCC(=O)N1)C(=O)NCC(=O)N[C@@H](CC(C)C)C(=O)N[C@@H](CCSC)C(N)=O ([pGlu]PSKDAFIGLM-NH2)"
  category: "NO"
- molecule: "C=Cc1c(C)c2cc3nc(cc4[nH]c(cc5nc(cc1[nH]2)C(C)=C5CCC(=O)OC)c(CCC(=O)O)c4C)[C@@]1(C)C3=CC=C(C(=O)OC)[C@H]1C(=O)OC"
  category: "NO"
- molecule: "CN[C@H]1CCc2cc(OC)c(OC)c(OC)c2-c2ccc(OC)c(=O)cc21"
  category: "NO"
- molecule: "O=C(NOC[C@H](O)CO)c1ccc(F)c(F)c1Nc1ccc(I)cc1F"
  category: "NO"
- molecule: "O=C(OC1C[C@@H]2CC3C[C@H](C1)N2CC3=O)c1c[nH]c2ccccc12 (stereo partly specified)"
  category: "NO"
- molecule: "CN(C)C(=O)CCSC(SCCC(=O)O)c1cccc(/C=C/c2ccc3ccc(Cl)cc3n2)c1 (stereo unspecified)"
  category: "NO"
- molecule: "Cn1c(O)c(N=NC(N)=S)c2ccccc21"
  category: "YES"
- molecule: "O=C(/C=C/c1cccc(F)c1)NC1CC1"
  category: "NO"
- molecule: "Cc1nnc(C(C)C)n1C1C[C@H]2CC[C@@H](C1)N2CC[C@H](NC(=O)C1CCC(F)(F)CC1)c1ccccc1 (stereo partly specified)"
  category: "NO"
- molecule: "Cc1cccc(C)c1NC(=O)NC1=CCCN1C"
  category: "NO"
- molecule: "CCC[C@@H]1C[C@@H](C(=O)N[C@@H]([C@H]2O[C@H](SC)[C@H](O)[C@@H](O)[C@H]2O)[C@H](C)Cl)N(C)C1"
  category: "NO"
- molecule: "O=C(c1cc2ccccc2o1)N1CCN(Cc2ccccc2)CC1"
  category: "NO"
- molecule: "N[C@H](CCC(=O)O)C(=O)O"
  category: "NO"
- molecule: "CO[C@@H]1[C@@H](O[C@@H]2O[C@H](C)[C@@H](O[C@H]3C[C@@](C)(O)[C@@H](O)[C@H](C)O3)[C@H](N(C)C)[C@H]2O)[C@@H](CC=O)C[C@@H](C)[C@@H](O[C@@H]2CC[C@H](N(C)C)[C@@H](C)O2)/C=C/C=C/C[C@@H](C)OC(=O)C[C@H]1O"
  category: "NO"
- molecule: "CC(=O)[C@@]1(O)CC[C@H]2[C@@H]3C=C(Cl)C4=CC(=O)[C@@H]5C[C@@H]5[C@]4(C)[C@H]3CC[C@@]21C"
  category: "NO"
- molecule: "O=S(=O)(O)Oc1ccc(C(c2ccc(OS(=O)(=O)O)cc2)c2ccccn2)cc1"
  category: "NO"
- molecule: "CCOC(=O)Cc1cccc(-c2cc(CCCCCCc3ccc(O[C@H]4O[C@H](COC(C)=O)[C@@H](OC(C)=O)[C@H](OC(C)=O)[C@@H]4OC(C)=O)c(-c4cccc(CC(=O)OCC)c4)c3)ccc2O[C@H]2O[C@H](COC(C)=O)[C@@H](OC(C)=O)[C@H](OC(C)=O)[C@@H]2OC(C)=O)c1"
  category: "NO"
- molecule: "C=CCCCCCCCCC(=O)OC"
  category: "NO"
